# System: HCT116 colorectal carcinoma cells
# Protocol details: Chou-Talalay combination assay, Cell Titer Glo
# Type: cell-based
# Experimental conditions: combination with pyrvinium pamoate, 72 hour incubation
Measured CI range of individual entries

Examples with their reported CI range follow.
| Compound | Metric | Reported |
| --- | --- | --- |
| O=C1[O][Pt]2([NH][C@@H]3CCCC[C@H]3[NH]2)[O]C1=O | CI range | 0.375-0.889 |
| CCc1c2c(nc3ccc(OC(=O)N4CCC(N5CCCCC5)CC4)cc13)-c1cc3c(c(=O)n1C2)COC(=O)[C@]3(O)CC | CI range | 0.582-0.878 |
| O=c1[nH]cc(F)c(=O)[nH]1 | CI range | 0.806-0.886 |

For COc1cc([C@@H]2c3cc4c(cc3[C@@H](O[C@@H]3O[C@@H]5CO[C@@H](C)O[C@H]5[C@H](O)[C@H]3O)[C@H]3COC(=O)[C@H]23)OCO4)cc(OC)c1O [Etoposide] the compound record lists CI range as 0.716-0.836

* * *

# Tested on: UM-Chor1 chordoma cell line
# Protocol details: Chou-Talalay combination assay, Cell Titer Glo
# Type: cell-based
# Experimental conditions: combination with pyrvinium pamoate, 72 hour incubation
Metric: CI range

| Compound | CI range |
| --- | --- |
| CC[C@]1(O)C[C@H]2CN(CCc3c([nH]c4ccccc34)[C@@](C(=O)OC)(c3cc4c(cc3OC)N(C=O)[C@H]3[C@@](O)(C(=O)OC)[C@H](OC(C)=O)[C@]5(CC)C=CCN6CC[C@]43[C@@H]65)C2)C1 | 0.249-0.560 |
| O=c1[nH]cc(F)c(=O)[nH]1 | 0.489-0.886 |
| C#Cc1cccc(Nc2ncnc3cc(OCCOC)c(OCCOC)cc23)c1 | 0.308-0.883 |

# N.N.[Cl][Pt][Cl] [Cisplatin] with UM-Chor1 chordoma cell line: CI range is 0.468-0.887

* * *

Measured CI range of individual entries
# Test system: UM-Chor1 chordoma cell line
# Protocol details: Chou-Talalay combination assay, Cell Titer Glo
# Type: cell-based
# Experimental conditions: combination with pyrvinium pamoate, 72 hour incubation

Examples with their reported CI range follow.
| Compound structure string | Subject of test | Reported |
| --- | --- | --- |
| CCc1c2c(nc3ccc(OC(=O)N4CCC(N5CCCCC5)CC4)cc13)-c1cc3c(c(=O)n1C2)COC(=O)[C@]3(O)CC | UM-Chor1 chordoma cell line | 0.580-0.772 |
| CC(=O)O[C@H]1C(=O)[C@@]2(C)[C@H]([C@H](OC(=O)c3ccccc3)[C@]3(O)C[C@H](OC(=O)[C@H](O)[C@@H](NC(=O)c4ccccc4)c4ccccc4)C(C)=C1C3(C)C)[C@]1(OC(C)=O)CO[C@@H]1C[C@@H]2O | UM-Chor1 chordoma cell line | 0.573-0.862 |

// below: CI range requested for another compound
For COc1cccc2c1C(=O)c1c(O)c3c(c(O)c1C2=O)C[C@@](O)(C(=O)CO)C[C@@H]3O[C@H]1C[C@H](N)[C@H](O)[C@H](C)O1 the compound record lists CI range as 0.423-0.875

* * *

# System: CHP-212 neuroblastoma cells
# Protocol details: Chou-Talalay combination assay, Cell Titer Glo
# Type: cell-based
# Experimental conditions: combination with pyrvinium pamoate, 72 hour incubation
Metric: CI range

Examples with their reported CI range follow.
| Molecule | Reported |
| --- | --- |
| CCN1CCN(Cc2ccc(Nc3ncc(F)c(-c4cc(F)c5nc(C)n(C(C)C)c5c4)n3)nc2)CC1 | 0.076-0.772 |
| COc1cccc2c1C(=O)c1c(O)c3c(c(O)c1C2=O)C[C@@](O)(C(=O)CO)C[C@@H]3O[C@H]1C[C@H](N)[C@H](O)[C@H](C)O1 | 0.696-0.812 |

For COc1cc([C@@H]2c3cc4c(cc3[C@@H](O[C@@H]3O[C@@H]5CO[C@@H](C)O[C@H]5[C@H](O)[C@H]3O)[C@H]3COC(=O)[C@H]23)OCO4)cc(OC)c1O [Etoposide] the molecule record lists CI range as 0.763-0.891

For CC(=O)O[C@H]1C(=O)[C@@]2(C)[C@H]([C@H](OC(=O)c3ccccc3)[C@]3(O)C[C@H](OC(=O)[C@H](O)[C@@H](NC(=O)c4ccccc4)c4ccccc4)C(C)=C1C3(C)C)[C@]1(OC(C)=O)CO[C@@H]1C[C@@H]2O the molecule record lists CI range as 0.545-0.868
